assay procedure: qHTS drug screen for cell cycle checkpoint inhibitors in PARPi-resistant BRCA-mutant ovarian cancer cell lines. (AID 1963452); note: potency is the fitted concentration of half-maximal effect
applied conditions: PEO1/OlaR viability, CellTiter-Glo luminescence, 96 h
Active and inactive are the calls of the source. Calls come from the whole dose curve.
measurement name: Potency

Study these solved cases before continuing.
# compound, observed value
data = [
    ("COc1cccc(OCCCN)c1-c1cc(Nc2cnc(C#N)cn2)n[nH]1", "4.9 nM (active)"),
    ("CCNC(=O)C#Cc1ccc2c(C(=Nc3ccc(CN(C)C)cc3)c3ccccc3)c(O)[nH]c2c1", "535 nM (active)"),
    ("FC(F)(F)c1ccc(/C=C/c2nc(COc3ccc(CCCCn4ccnn4)cc3)co2)cc1", "195 nM (active)"),
]

Shifting focus to the molecule that follows.
Prompt line: Give the measured Potency of O=C1NC(=O)C(c2cnc3ccccn23)=C1c1cn2c3c(cc(F)cc13)CN(C(=O)N1CCCCC1)CC2 .
Response line: 174 nM (active)

* * *

System: HeLa
assay procedure: Primary qHTS to identify gynecologic anti-cancer compounds using libraries of approved drugs and bioactive compounds (AID 1345084); note: nearly all actives have a fitted effect of over 55% in size
applied conditions: Gynecologic cancer cell panel viability, ATPlite luminescence, 48 h; series mostly up to 57.5 µM
Results filed as inconclusive are left out. Active and inactive are the calls of the source. The call rests on the fitted dose curve; in most records, active means well fitted cell-killing curve with a large enough effect; inconclusive means small, poorly fitted or top-dose-only effect, or effect the other way; inactive means flat fitted curve, though single readings scatter.
Give your call using only these classes: active, inactive

# compound, study target, answer label
rows = [
    ("CC1=C(C(=O)Nc2cc(Cl)ccc2Cl)C(c2ccco2)C2=C(CCCC2=O)N1 (stereo not given)", "HeLa", "inactive"),
    ("c1cc(NC2CCNCC2)nc(-c2cnc3ccccn23)c1", "HeLa", "active"),
    ("COc1cc(/C=C2\\CC[C@H]3COC[C@@H](c4cc(F)c(F)c(F)c4)N3C2=O)ccc1-n1cnc(C)c1", "HeLa", "inactive"),
    ("C=C(C)C(=O)OC1CC2(C)OC(=CC2=O)C(=C)CC2OC(=O)C(=C)C12 (stereo not given)", "HeLa", "inactive"),
]

Now consider a different compound.
Prompt line: Per the assay record, what outcome was assigned to Fc1ccc(N2CCN(CCC3OCCc4ccccc43)CC2)cc1 (stereo not given) ?
Response line: inactive

* * *

Test system: Zika virus NS2B-NS3 protease (unlinked complex)
assay procedure: Primary screen GU Rhodamine qHTS for Zika virus inhibitors: Unlinked NS2B-NS3 protease assay (AID 1347159); note: nearly all actives have a fitted effect of over 60% in size
applied conditions: Recombinant ZIKV NS2B-NS3 protease, Rhodamine110 substrate fluorescence; series mostly up to 107 µM
Records with an inconclusive call do not appear. Calls of active or inactive are those of the source. Calls come from the whole dose curve; as a rule, active = well fitted inhibition curve with a large enough effect; inconclusive = small, poorly fitted or top-dose-only effect; inactive = no such curve, though single readings can be large or run the other way.
Give your call using only these classes: 1 (yes) = active, 0 (no) = inactive

Observe how each entry below is paired with its result.
# compound, answer label
rows = [
    ("CN1CCN(C2=Nc3ccccc3Nc3ccc(Cl)cc32)CC1", "0 (no)"),
    ("CC(C)NCCCn1c(Sc2cc3c(cc2I)OCO3)nc2c(N)ncnc21", "0 (no)"),
    ("CC(C)(C)Sc1c(CC(C)(C)C(=O)O)n(Cc2ccc(Cl)cc2)c2ccc(OCc3ccc4ccccc4n3)cc12", "1 (yes)"),
    ("COc1ccc2[nH]c(=O)c3c(c2c1)OC(C)(C)C=C3", "0 (no)"),
    ("Cc1cc(F)ccc1-c1nc(NCCN=C(N)NC#N)nc2c1ccc(=O)n2-c1c(F)cccc1F", "0 (no)"),
    ("CCOC(=O)N1c2ccc(C(F)(F)F)cc2C(N(Cc2cc(C(F)(F)F)cc(C(F)(F)F)c2)C(=O)OC)CC1CC (configuration not stated)", "0 (no)"),
    ("NC(=O)c1cnc(N[C@@H]2CCCC[C@H]2N)nc1Nc1cccc(-n2nccn2)c1", "0 (no)"),
    ("COc1cc(NC(=O)c2cc(C3CC3)on2)c(OC)cc1Cl", "0 (no)"),
    ("C=C1C(=O)O[C@@H]2C=C(COC(C)=O)CC/C=C(\\CO)CC[C@@H]12", "0 (no)"),
    ("CC1(C)SCCN(S(=O)(=O)c2ccc(Oc3ccncc3)cc2)[C@H]1C(=O)NO", "0 (no)"),
]

Prompt line: Per the assay record, what outcome was assigned to O=C(NC1CCN(CCCCC2(C(=O)NCC(F)(F)F)c3ccccc3-c3ccccc32)CC1)c1ccccc1-c1ccc(C(F)(F)F)cc1 ?
Response line: 0 (no)

Prompt line: Per the assay record, what outcome was assigned to C=C1C(=O)OC2/C=C(\CO)CC/C=C(\C=O)C(OC)C(OC(=O)C(C)CC)C12 (configuration not stated) ?
Response line: 0 (no)

Prompt line: Per the assay record, what outcome was assigned to CC(C)C[C@@H](C(=O)N[C@@H](Cc1ccc(OCc2ccccc2)cc1)C(=O)NC(C)(C)C)N(C)Cc1ccc(C(C)(C)C)cc1 ?
Response line: 0 (no)

Prompt line: Per the assay record, what outcome was assigned to COc1ccc(CCc2nc3c(C)c(-c4c(C)noc4C)c(C)cc3n2CCN2CCOCC2)cc1 ?
Response line: 0 (no)

Prompt line: Per the assay record, what outcome was assigned to O=C([C@@H](Cc1cccc(C(F)(F)F)c1)NS(=O)(=O)c1cc(F)c2c(c1)CCNC2)N1CCCC1 ?
Response line: 0 (no)

* * *

assay procedure: Primary redox qHTS assay for identification of artifact compounds. (AID 1845223);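 note: 0% = DMSO and 100% = reference compound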
applied conditions: Amplex Red/HRP redox cycling with DTT, fluorescence; series mostly up to 53.8 µM
Source text: PI: Alexander Tropsha Ph.D. UNC Eshelman School of Pharmacy University of North Carolina, Chapel Hill, North Carolina Hits from high-throughput screening (HTS) of chemical libraries are often false positives due to their interference with the assay detection technology. […] Using these curated datasets, we developed and validated several Quantitative Structure-Interference Relationship (QSIR) models to predict nuisance behavior. […]
Results filed as inconclusive are left out. Active and inactive are the calls of the source. Calls come from the whole dose curve; as a rule, active = well fitted activation curve with a large enough effect; inconclusive = small, poorly fitted or top-dose-only effect; inactive = flat fitted curve, though single readings scatter.
measurement name: redox activity (% of DA3003)

Study these solved cases before continuing.
# compound, redox activity (% of DA3003)
rows = [
    ("CCC(C)C(=O)OC1C(C)C2(O)C(C=C(CO)CC3(O)C(=O)C(C)=CC32)C2C(C)(C)C12OC(=O)C(C)C (stereo not drawn)", "inactive"),
    ("Cc1sc2c(c1C)C(c1ccc(Cl)cc1)=N[C@@H](CC(=O)Nc1ccc(OCCOCCOCCOCCNc3cccc4c3C(=O)N(C3CCC(=O)NC3=O)C4=O)cc1)c1nnc(C)n1-2 (stereo partly drawn)", "inactive"),
    ("COC(=O)C[C@H]1[C@]2(C)C3=C(C)[C@H](c4ccoc4)C[C@H]3O[C@@H]2[C@H](O)C2[C@](C)(C(=O)OC)C=CC(=O)[C@@]21C (stereo partly drawn)", "inactive"),
    ("CC(NCCCc1cccc(C(F)(F)F)c1)c1cccc2ccccc12 (stereo not drawn)", "inactive"),
    ("CC(=O)C=C=C1C(C)(C)CC(O)CC1(C)O[C@@H]1O[C@H](CO[C@H]2OC[C@](O)(CO)[C@H]2O)[C@@H](O)[C@H](O)[C@H]1O (stereo partly drawn)", "inactive"),
]

Prompt line: Give the measured redox activity (% of DA3003) of Cc1[nH]c2ccccc2c1CCNCc1ccc(/C=C/C(=O)NO)cc1 .
Response line: inactive

Prompt line: Give the measured redox activity (% of DA3003) of COC1C(O)C(OC2CCC3(C)C(CCC45CCC6C7(COC(=O)C7)OC4(O)C6(C)CCC35)C2)OC(C)C1OC1OC(CO)C(OC2OC(CO)C(O)C(O)C2O)C(O)C1O (stereo not drawn) .
Response line: 3.19% [at 11.5 µM] (inactive)

Prompt line: Give the measured redox activity (% of DA3003) of Cc1nc2cc(C(=O)NCc3ccccn3)nn2c(C)c1Cc1cccc(Cl)c1 .
Response line: inactive

* * *

System: CAOV3
assay procedure: Primary qHTS to identify gynecologic anti-cancer compounds using libraries of approved drugs and bioactive compounds (AID 1345084); note: nearly all actives have a fitted effect of over 55% in size
applied conditions: Gynecologic cancer cell panel viability, ATPlite luminescence, 48 h; series mostly up to 57.5 µM
Results filed as inconclusive are left out. Calls of active or inactive are those of the source. Calls follow the shape of the dose curve; as a rule, active = well fitted cell-killing curve with a large enough effect; inconclusive = small, poorly fitted or top-dose-only effect, or effect the other way; inactive = flat fitted curve, though single readings scatter.
measurement name: outcome

Study these solved cases before continuing.
# compound, outcome
records = [
    ("COc1ccc(CN2CCN(C(=O)CCNC(=O)c3ccc(C(C)(C)C)cc3)CC2)cc1", "inactive"),
    ("C=CC(=O)N1CCCC(n2nc(-c3ccc(Oc4ccccc4)cc3)c3c(N)ncnc32)C1 (centres undefined)", "inactive"),
    ("C=C1C(=O)OC2/C=C(\\C)CC3C=C(CC/C=C(\\C)CCC12)C(=O)O3 (centres undefined)", "inactive"),
    ("Cc1cn2cc(C(=O)N(C)CCO)cc(NC3CCOc4cccc(C)c43)c2n1 (centres undefined)", "inactive"),
    ("CCC(C)C(=O)Oc1cc(C)ccc1C1(COC(=O)C(C)C)CO1 (centres undefined)", "inactive"),
]

Prompt line: Value wanted: outcome (CAOV3) of entry O=[N+]([O-])c1ccc(Oc2ccc3c(c2)CCC(c2ccccc2)O3)nc1 (centres undefined)
Response line: inactive

Prompt line: Value wanted: outcome (CAOV3) of entry COc1ccc(C[C@H]2COC(=O)[C@@H]2Cc2ccc(O[C@@H]3O[C@H](CO)[C@@H](O)[C@H](O)[C@H]3O)c(OC)c2)cc1OC
Response line: inactive

Prompt line: Value wanted: outcome (CAOV3) of entry Nc1nc2c(nc(Br)n2[C@@H]2O[C@@H]3COP(=O)(O)O[C@H]3[C@H]2O)c(=O)[nH]1
Response line: inactive

Prompt line: Value wanted: outcome (CAOV3) of entry Cc1[nH]c(/C=C2\C(=O)Nc3cc(-c4ccccc4)ccc32)c(C)c1CCC(=O)O
Response line: inactive
